Known % inhibition of max of a selection of binders
# target: T1, Human CXCR2 (human, UniProt P25025 1-360)
# T1 construct: Some cell lines carry an N-terminal 3xHA tag; also called hCXCR2; huCXCR2
# T1 sequence: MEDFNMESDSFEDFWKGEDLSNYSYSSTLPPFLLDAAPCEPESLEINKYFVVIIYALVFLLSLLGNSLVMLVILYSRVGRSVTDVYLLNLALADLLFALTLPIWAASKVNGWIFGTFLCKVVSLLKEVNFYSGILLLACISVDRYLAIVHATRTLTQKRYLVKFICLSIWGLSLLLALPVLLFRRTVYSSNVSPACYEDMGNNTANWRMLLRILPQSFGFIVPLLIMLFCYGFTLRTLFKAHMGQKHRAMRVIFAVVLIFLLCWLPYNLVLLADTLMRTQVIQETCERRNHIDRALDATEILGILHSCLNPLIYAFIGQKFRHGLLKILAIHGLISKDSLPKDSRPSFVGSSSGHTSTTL
# method: FACS competition vs 3 nM FMAT-Blue Gro-α

Notebook: CXCR20018 (other, Two different VHH joined by a GlySer linker; also called 137B7-35GS-97A9; not shown: C-terminal c-myc tag and His6 tag coded by pAX100) EVQLVESGGGLVQPGGSVRLSCVASGIIFRLSALGWTRQGPGKAREWVAGINSDGTTNYADPVKGRFTISRDNAKNTIYLHMDMLKPEDTAVYYCASGKYRGQGTQVTVSSGGGGSGGGGSGGGGSGGGGSGGGGSGGGGSGGGGSEVQLVESGGGLVQPGGSLRLSCVASGSIVRINTMGWYRQTPGKQRELVADITSGGNINYIDAVKGRFTISRDNTKNTVYLQMNSLKPEDTAVYYCNAEIVVLVGVWTQRARTGNYWGQGTQVTVSS , % inhibition of max read as 98%

Notebook: CXCR20033 (bispecific antibody, Biparatopic: two VHH joined by a GlySer linker; also called 163E3-35GS-2B2; 163E3-2B2; not shown: C-terminal c-myc tag and His6 tag coded by pAX100) EVQLVESGGGLVQPGGSLRLSCVASGRIFSSNAMGWFRQAPGKEREFVAAITWRSGGSAYYADSAKGRFTISRDNAKNTVYLQMNSLKPEDTAVYYCAAGGSSWLSFPPDYWGQGTQVTVSSGGGGSGGGGSGGGGSGGGGSGGGGSGGGGSGGGGSEVQLVESGGELVQPGGSLRLSCAASGSILTINAMGWYRQAPGKQRELVVRRTRGGSTTYQDSVKGRFTISADIAKKTMYLQMNSLKPEDTAVYYCMLDDRGGVYWGQGTQVTVSS , % inhibition of max read as 100%

Notebook: CXCR20019 (VHH, Bivalent: two VHH joined by a 9GS linker; also called 2B2-9GS-2B2; not shown: C-terminal c-myc tag and His6 tag coded by pAX100) EVQLVESGGELVQPGGSLRLSCAASGSILTINAMGWYRQAPGKQRELVVRRTRGGSTTYQDSVKGRFTISADIAKKTMYLQMNSLKPEDTAVYYCMLDDRGGVYWGQGTQVTVSSGGGGSGGGSEVQLVESGGELVQPGGSLRLSCAASGSILTINAMGWYRQAPGKQRELVVRRTRGGSTTYQDSVKGRFTISADIAKKTMYLQMNSLKPEDTAVYYCMLDDRGGVYWGQGTQVTVSS , % inhibition of max read as 50.6%

Notebook: CXCR20024 (VHH, Bivalent: two VHH joined by a GlySer linker; also called 163E3-35GS-163E3; not shown: C-terminal c-myc tag and His6 tag coded by pAX100) EVQLVESGGGLVQPGGSLRLSCVASGRIFSSNAMGWFRQAPGKEREFVAAITWRSGGSAYYADSAKGRFTISRDNAKNTVYLQMNSLKPEDTAVYYCAAGGSSWLSFPPDYWGQGTQVTVSSGGGGSGGGGSGGGGSGGGGSGGGGSGGGGSGGGGSEVQLVESGGGLVQPGGSLRLSCVASGRIFSSNAMGWFRQAPGKEREFVAAITWRSGGSAYYADSAKGRFTISRDNAKNTVYLQMNSLKPEDTAVYYCAAGGSSWLSFPPDYWGQGTQVTVSS , % inhibition of max read as 99%

Notebook: CXCR20028 (other, Biparatopic: two VHH joined by a GlySer linker; also called 97A9-35GS-54B12; 97A9-54B12; not shown: C-terminal c-myc tag and His6 tag coded by pAX100) EVQLVESGGGLVQPGGSLRLSCVASGSIVRINTMGWYRQTPGKQRELVADITSGGNINYIDAVKGRFTISRDNTKNTVYLQMNSLKPEDTAVYYCNAEIVVLVGVWTQRARTGNYWGQGTQVTVSSGGGGSGGGGSGGGGSGGGGSGGGGSGGGGSGGGGSEVQLVESGGGLVQAGGSLTLSCAVSGSTFRINTMGWYRRAPGKQRELVAARDRGGYINYVDSVKGRFTVSRDNAKPTMYLQMNSLKPEDTAVYYCHAGTQDRTGRNFDRWGQGTQVTVSS , % inhibition of max read as 98.5%
